Value source: patent US20250034275A1

testedOn: T1, human Trop-2 (on the surface of human cell lines) (human, UniProt P09758 27-323)
T1 construct: Endogenous Trop-2 on NCI-H322, Capan-1, PC-3, HUVEC, OVCAR-3, HCC38 and HCC1806 cells; also called TACSTD2
T1 sequence: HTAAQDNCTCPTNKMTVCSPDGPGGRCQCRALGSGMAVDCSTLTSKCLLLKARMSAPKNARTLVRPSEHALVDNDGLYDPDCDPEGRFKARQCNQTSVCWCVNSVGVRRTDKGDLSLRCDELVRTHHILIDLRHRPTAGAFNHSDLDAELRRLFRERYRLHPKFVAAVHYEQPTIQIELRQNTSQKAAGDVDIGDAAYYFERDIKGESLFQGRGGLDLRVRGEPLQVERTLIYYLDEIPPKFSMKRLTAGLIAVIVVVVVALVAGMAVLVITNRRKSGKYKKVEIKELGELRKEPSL
experimentalProtocol: flow cytometry, HCC38 cells
// values below are reported pEC50
To interpret pEC50, take it as minus log10 of a concentration measured in moles per litre.

Examples from the recorded data:
binder | readoutLabel | reportedResult
hz-Ab21-2.1 (antibody, human IgG1, kappa, V domains shown, Humanized antibody) VH: EVQLVESGGGLVKPGGSLRLSCAASGFTLRNYGVHWVRQAPGKGLEWVGVIWSSGTTDYAAPVKGRFTISKDNSKNTLYLQMNSLKTEDTAVYYCTRDGDYDYYTMDYWGQGTLVTVSS VL: EIVLTQSPATLSLSPGERATLSCRASKSVSTSAYSYIHWYQQKPGQPPRLLIYLTSNLESGIPARFSGSGSGTDFTLTISSLEPEDFAVYYCQHSRELPYTFGQGTKVEIKR | pEC50 | 9.19
hz-Ab2-1.4 (antibody, human IgG1, kappa, V domains shown, Humanized antibody) VH: QVQLQESGPGLVKPSETLSLTCTVSGFSLTYYGIDWIRQPPGKGLEWIGVIWGSGNTKYNSALKSRVTISKDNSKSQVYLKLSSVTAADTAVYYCARFYEGFAYWGQGTLVTVSS VL: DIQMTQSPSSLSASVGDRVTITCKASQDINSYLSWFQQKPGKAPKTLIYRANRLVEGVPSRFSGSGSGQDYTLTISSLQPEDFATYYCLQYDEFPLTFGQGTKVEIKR | pEC50 | 8.92

Note: attention shifts to another entry.
Entry ch-Ab2 (antibody, human IgG1, kappa, V domains shown, also called chimeric antibody of Ab2) VH: EVQLVESGPGLVAPSQSLSITCTVSGFSLTYYGIDWVRQPPGKGLEWLGVIWGSGNTKYNSALMSRLSISKDNSKSQVFLRMNSLQSDDTAIYYCARFYEGFAYWGQGTLVTVSA VL: AIVLTQSPSSMYASLGERVTITCKASQDINSYLSWFQQKPGKSPKTLIYRANRLVDGVPSRFSGSGSGQDYSLTISSLEYEDMGIYYCLQYDEFPLTFGVGTKLELKR , pEC50 reported as 9.23
